We begin with a simple list: items and their reported pIC50.
- System: DU-145
- EXPERIMENTAL_DETAILS: Cytotoxicity against human DU145 cells incubated from day 2 to day 4 by CCK8 assay
- Assay type: functional, cell-based
pIC50: −log10 of the molar value.

{"SMILES_REPR": "Oc1cccc(-c2cc(-c3ccco3)c3c(n2)-c2ccccc2C3)c1", "SYSTEM": "DU-145", "pIC50": 5.36}
{"SMILES_REPR": "Oc1ccccc1-c1cc(-c2ccoc2)c2c(n1)-c1ccccc1C2", "SYSTEM": "DU-145", "pIC50": "< 4.30"}
{"SMILES_REPR": "Oc1cccc(-c2cc(-c3cccnc3)c3c(n2)-c2ccccc2C3)c1", "SYSTEM": "DU-145", "pIC50": "< 4.30"}
{"SMILES_REPR": "Oc1ccc(-c2cc(-c3cccnc3)c3c(n2)-c2ccccc2C3)cc1", "SYSTEM": "DU-145", "pIC50": "< 4.30"}
{"SMILES_REPR": "Oc1ccccc1-c1cc(-c2ccccn2)c2c(n1)-c1ccccc1C2", "SYSTEM": "DU-145", "pIC50": "< 4.30"}
{"SMILES_REPR": "Oc1ccc(-c2cc(-c3ccccn3)c3c(n2)-c2ccccc2C3)cc1", "SYSTEM": "DU-145", "pIC50": "< 4.30"}

====

The entries below come with measured inhibition values attached.
- SYSTEM: UniProtKB P11388
- Sequence (P11388 whole entry): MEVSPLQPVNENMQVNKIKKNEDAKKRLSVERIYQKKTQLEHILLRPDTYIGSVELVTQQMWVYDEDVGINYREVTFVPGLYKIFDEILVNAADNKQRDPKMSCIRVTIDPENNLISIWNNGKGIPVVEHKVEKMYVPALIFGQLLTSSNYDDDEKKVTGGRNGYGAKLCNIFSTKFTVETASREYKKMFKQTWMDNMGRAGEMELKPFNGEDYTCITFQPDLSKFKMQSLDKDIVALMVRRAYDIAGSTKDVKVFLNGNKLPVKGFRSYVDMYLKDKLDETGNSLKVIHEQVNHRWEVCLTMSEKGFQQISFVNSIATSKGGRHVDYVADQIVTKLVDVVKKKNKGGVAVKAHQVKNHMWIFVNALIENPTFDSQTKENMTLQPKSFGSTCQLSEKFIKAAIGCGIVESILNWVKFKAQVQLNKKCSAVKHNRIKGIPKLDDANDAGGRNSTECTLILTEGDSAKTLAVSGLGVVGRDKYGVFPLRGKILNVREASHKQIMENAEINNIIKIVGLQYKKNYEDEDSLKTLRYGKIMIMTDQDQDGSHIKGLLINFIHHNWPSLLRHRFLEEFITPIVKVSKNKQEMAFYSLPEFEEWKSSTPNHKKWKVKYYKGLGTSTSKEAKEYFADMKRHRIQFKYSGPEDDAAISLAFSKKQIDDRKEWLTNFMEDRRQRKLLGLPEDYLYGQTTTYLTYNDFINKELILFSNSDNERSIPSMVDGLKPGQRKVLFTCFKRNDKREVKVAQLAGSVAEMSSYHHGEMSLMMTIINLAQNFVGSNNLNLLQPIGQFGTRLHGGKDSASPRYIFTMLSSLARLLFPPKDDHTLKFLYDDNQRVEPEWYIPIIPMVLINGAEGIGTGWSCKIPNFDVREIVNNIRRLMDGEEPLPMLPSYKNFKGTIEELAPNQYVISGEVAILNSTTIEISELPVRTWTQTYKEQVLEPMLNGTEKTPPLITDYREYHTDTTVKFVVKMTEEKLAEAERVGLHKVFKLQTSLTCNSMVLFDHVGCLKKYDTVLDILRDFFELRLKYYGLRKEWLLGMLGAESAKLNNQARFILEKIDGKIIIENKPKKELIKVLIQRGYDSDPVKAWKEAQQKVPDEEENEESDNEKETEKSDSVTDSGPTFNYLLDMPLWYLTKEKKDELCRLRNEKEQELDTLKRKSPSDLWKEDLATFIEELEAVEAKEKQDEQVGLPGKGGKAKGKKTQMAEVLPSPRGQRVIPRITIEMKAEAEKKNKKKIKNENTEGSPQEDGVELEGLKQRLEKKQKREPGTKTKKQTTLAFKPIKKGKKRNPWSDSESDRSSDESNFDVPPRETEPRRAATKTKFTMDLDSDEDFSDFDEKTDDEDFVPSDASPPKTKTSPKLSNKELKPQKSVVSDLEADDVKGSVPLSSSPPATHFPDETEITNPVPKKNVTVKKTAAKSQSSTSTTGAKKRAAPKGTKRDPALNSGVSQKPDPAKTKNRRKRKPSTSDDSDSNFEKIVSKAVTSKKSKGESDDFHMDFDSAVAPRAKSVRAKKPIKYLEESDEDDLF
- EXPERIMENTAL_DETAILS: Inhibition of human recombinant DNA topoisomerse 2 alpha using pBR322 as substrate assessed as inhibition of conversion of supercoiled pBR322 to relaxed form at 100 uM after 30 mins by ethidium bromide staining-based electrophoresis analysis

{"SMILES_REPR": "Oc1ccccc1-c1cc(-c2ccco2)c2c(n1)-c1ccccc1C2", "inhibition": "11.7%"}
{"SMILES_REPR": "c1ccc(-c2cc(-c3cccs3)c3c(n2)-c2ccccc2C3)cc1", "inhibition": "16.8%"}
{"SMILES_REPR": "Oc1cccc(-c2cc(-c3ccoc3)c3c(n2)-c2ccccc2C3)c1", "inhibition": "56.2%"}
{"SMILES_REPR": "Oc1ccccc1-c1cc(-c2cccs2)c2c(n1)-c1ccccc1C2", "inhibition": "31.5%"}

====

- System: DU-145
- EXPERIMENTAL_DETAILS: Cytotoxicity against human DU145 cells incubated from day 2 to day 4 by CCK8 assay
- Assay type: functional, cell-based
pIC50: −log10 of the molar value. Where a name gives a salt, the structure may show the parent alone.
Tag: fulfilled if measured pIC50 is not below 5, not fulfilled if it is.

{"MOLECULE": "Oc1ccc(-c2cc(-c3ccsc3)c3c(n2)-c2ccccc2C3)cc1", "ASSIGNED_CATEGORY": "not fulfilled"}
{"MOLECULE": "Oc1cccc(-c2cc(-c3cccs3)c3c(n2)-c2ccccc2C3)c1", "ASSIGNED_CATEGORY": "fulfilled"}
{"MOLECULE": "Oc1ccc(-c2cc(-c3ccoc3)c3c(n2)-c2ccccc2C3)cc1", "ASSIGNED_CATEGORY": "not fulfilled"}
{"MOLECULE": "Oc1ccccc1-c1cc(-c2ccsc2)c2c(n1)-c1ccccc1C2", "ASSIGNED_CATEGORY": "not fulfilled"}
{"MOLECULE": "COc1cccc2c1C(=O)c1c(O)c3c(c(O)c1C2=O)C[C@@](O)(C(=O)CO)C[C@@H]3O[C@H]1C[C@H](N)[C@H](O)[C@H](C)O1 [DOXORUBICIN HYDROCHLORIDE]", "ASSIGNED_CATEGORY": "fulfilled"}
{"MOLECULE": "Oc1ccccc1-c1cc(-c2cccnc2)c2c(n1)-c1ccccc1C2", "ASSIGNED_CATEGORY": "not fulfilled"}
{"MOLECULE": "Oc1ccccc1-c1cc(-c2ccco2)c2c(n1)-c1ccccc1C2", "ASSIGNED_CATEGORY": "not fulfilled"}
{"MOLECULE": "Oc1cccc(-c2cc(-c3ccccn3)c3c(n2)-c2ccccc2C3)c1", "ASSIGNED_CATEGORY": "not fulfilled"}
{"MOLECULE": "c1ccc(-c2cc(-c3ccncc3)c3c(n2)-c2ccccc2C3)cc1", "ASSIGNED_CATEGORY": "not fulfilled"}
{"MOLECULE": "Oc1cccc(-c2cc(-c3ccoc3)c3c(n2)-c2ccccc2C3)c1", "ASSIGNED_CATEGORY": "not fulfilled"}
